Tested on: human hepatic stellate cells LX-2
Test: Anti-fibrosis activity test: inhibition of proliferation of human hepatic stellate cells LX-2 (CCK-8)
Format: cell-based
Conditions: Homo sapiens, 48 h, human hepatic stellate cells LX-2, CCK-8, 48 hours
As shown below, each of these compounds has a reported IC50 value.

compound | experimental-target | IC50
O=C1c2c(nc3c(C(F)(F)F)cccc3c2OCc2ccccc2Cl)-c2cccn21 [Compound 457b] | human hepatic stellate cells LX-2 | 0.05 to 5 mM
O=C1c2c([nH]c3c(O)cccc3c2=O)-c2cccn21 [Compound 445a] | human hepatic stellate cells LX-2 | 0.05 to 5 mM
O=C1c2c(n(Cc3cccc(Cl)c3)c3cc(F)ccc3c2=O)-c2cccn21 [Compound 497a] | human hepatic stellate cells LX-2 | 0.05 to 5 mM
O=C1c2c(nc3cccc(C(F)(F)F)c3c2OCc2ccccc2Cl)-c2cccn21 [Compound 472b] | human hepatic stellate cells LX-2 | 0.05 to 5 mM
CC(C)Oc1c2c(nc3ccccc13)-c1cccn1C2=O [Compound 5b] | human hepatic stellate cells LX-2 | 5 to 20 mM
N#Cc1ccc2c(=O)c3c([nH]c2c1)-c1cccn1C3=O [Compound 512a] | human hepatic stellate cells LX-2 | < 0.05 mM
O=C1c2c(nc3ccccc3c2OCc2ccc(F)c(Cl)c2)-c2cccn21 [Compound 603b] | human hepatic stellate cells LX-2 | 0.05 to 5 mM
O=C1c2c(n(Cc3ccc(Cl)cc3)c3cc(N4CCNCC4)c(F)cc3c2=O)-c2cccn21 [Compound 632a] | human hepatic stellate cells LX-2 | 0.05 to 5 mM
N#Cc1ccc(COc2c3c(nc4ccc(F)cc24)-c2cccn2C3=O)cc1 [Compound 619b] | human hepatic stellate cells LX-2 | 0.05 to 5 mM

====

As shown below, each of these molecules has a reported IC50 value.
Tested on: BHK-21 cells
Assay: Anti-fibrosis activity test: inhibition of BHK-21 cell proliferation (CCK-8)
Format: cell-based
Conditions: Mesocricetus auratus, BHK-21, 48 h, CCK-8, 48 hours after administration
property-label: IC50

molecule | experimental-target | result
N#Cc1ccc2nc3c(c(Oc4ccc(Cl)cc4)c2c1)C(=O)n1cccc1-3 [Compound 210b] | BHK-21 cells | 0.05 to 5 mM
O=C(Oc1c2c(nc3ccccc13)-c1cccn1C2=O)c1ccco1 [Compound 95b] | BHK-21 cells | 0.05 to 5 mM
O=C1c2c(n(Cc3ccc(Cl)cc3F)c3ccc(F)cc3c2=O)-c2cccn21 [Compound 621a] | BHK-21 cells | 0.05 to 5 mM
O=C1c2c(nc3c(F)cccc3c2OCc2ccc(Cl)cc2)-c2cccn21 [Compound 453b] | BHK-21 cells | 0.05 to 5 mM
O=C1c2c(n(Cc3ccc(Cl)cc3)c3ccc(F)cc3c2=O)-c2cccn21 [Compound 618a] | BHK-21 cells | 0.05 to 5 mM
O=C1c2c(n(C3CC3)c3cc(N4CCNCC4)c(F)cc3c2=O)-c2cccn21 [Compound 340a] | BHK-21 cells | 0.05 to 5 mM
N#Cc1c(N2CCNCC2)ccc2c(OCc3ccc(F)cc3)c3c(nc12)-c1cccn1C3=O [Compound 482b] | BHK-21 cells | 0.05 to 5 mM
O=C1c2c(nc3c(F)c(N4CCNCC4)ccc3c2OCc2ccc(Cl)cc2)-c2cccn21 [Compound 484b] | BHK-21 cells | 0.05 to 5 mM
O=C1c2c(nc3ccccc3c2Oc2ccc(Cl)cc2)-c2cccn21 [Compound 34b] | BHK-21 cells | 0.05 to 5 mM
O=C1c2c(n(Cc3ccccc3F)c3ccccc3c2=O)-c2cccn21 [Compound 599a] | BHK-21 cells | 0.05 to 5 mM
O=C1c2c(nc3ccccc3c2OCc2ccc([N+](=O)[O-])cc2)-c2cccn21 [Compound 593b] | BHK-21 cells | 0.05 to 5 mM
C=CCOc1c2c(nc3ccc(F)cc13)-c1cccn1C2=O [Compound 109b] | BHK-21 cells | 0.05 to 5 mM
CC(C)Oc1c2c(nc3ccc(F)cc13)-c1cccn1C2=O [Compound 108b] | BHK-21 cells | 0.05 to 5 mM
Cc1cccc(COc2c3c(nc4ccccc24)-c2cccn2C3=O)c1 [Compound 609b] | BHK-21 cells | 0.05 to 5 mM
O=C1c2c([nH]c3cc(N4CCNCC4)c(F)cc3c2=O)-c2cccn21 [Compound 346a] | BHK-21 cells | 0.05 to 5 mM
O=C1c2c(nc3cc(C(F)(F)F)ccc3c2OCc2ccccc2Cl)-c2cccn21 [Compound 546b] | BHK-21 cells | 0.05 to 5 mM
O=C1c2c(n(Cc3ccccc3C(F)(F)F)c3ccccc3c2=O)-c2cccn21 [Compound 581a] | BHK-21 cells | 0.05 to 5 mM
O=C1c2c(nc3ccc(C(F)(F)F)cc3c2O)-c2cccn21 [Compound 282b] | BHK-21 cells | 0.05 to 5 mM
